target: MMP-9 (Homo sapiens); assay: biochemical
Sequence (P14780 94-707): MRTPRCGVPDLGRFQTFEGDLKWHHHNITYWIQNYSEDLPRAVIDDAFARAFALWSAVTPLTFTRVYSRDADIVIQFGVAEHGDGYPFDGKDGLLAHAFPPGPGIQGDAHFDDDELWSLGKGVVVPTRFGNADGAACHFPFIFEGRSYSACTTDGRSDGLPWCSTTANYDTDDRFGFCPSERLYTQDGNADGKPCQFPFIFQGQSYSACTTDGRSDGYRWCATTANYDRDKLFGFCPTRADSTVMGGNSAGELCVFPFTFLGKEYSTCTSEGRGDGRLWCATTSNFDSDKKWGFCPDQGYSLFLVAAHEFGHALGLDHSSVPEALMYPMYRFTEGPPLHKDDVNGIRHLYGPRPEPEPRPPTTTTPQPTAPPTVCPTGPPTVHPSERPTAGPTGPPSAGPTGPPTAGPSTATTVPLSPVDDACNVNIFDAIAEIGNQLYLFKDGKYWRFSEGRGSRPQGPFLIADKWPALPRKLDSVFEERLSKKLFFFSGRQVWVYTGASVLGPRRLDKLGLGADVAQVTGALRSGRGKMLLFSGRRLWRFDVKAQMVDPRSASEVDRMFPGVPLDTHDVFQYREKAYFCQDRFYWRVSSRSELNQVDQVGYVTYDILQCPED
Entries annotated with measured IC50
Write it as a number; the unit nM goes unstated.

>>> numeric_readout("Cc1cccc(C(=O)NO)c1N(C)S(=O)(=O)c1ccc(Oc2ccncc2)cc1")
6.8

With those in mind, consider the next compound.
[Q] Find the measured IC50 of `COc1ccc(S(=O)(=O)N(Cc2cccnc2)c2c(OCc3cccnc3)cccc2C(=O)NO)cc1` and report it.
[A] 34

----------
biological target: TACE (Homo sapiens, UniProt P78536); construct: purchased Immunex; test: TACE inhibition (fluorescent peptidyl substrate); assay type: biochemical; details: read-out: TACE IC50
Sequence (P78536 215-824): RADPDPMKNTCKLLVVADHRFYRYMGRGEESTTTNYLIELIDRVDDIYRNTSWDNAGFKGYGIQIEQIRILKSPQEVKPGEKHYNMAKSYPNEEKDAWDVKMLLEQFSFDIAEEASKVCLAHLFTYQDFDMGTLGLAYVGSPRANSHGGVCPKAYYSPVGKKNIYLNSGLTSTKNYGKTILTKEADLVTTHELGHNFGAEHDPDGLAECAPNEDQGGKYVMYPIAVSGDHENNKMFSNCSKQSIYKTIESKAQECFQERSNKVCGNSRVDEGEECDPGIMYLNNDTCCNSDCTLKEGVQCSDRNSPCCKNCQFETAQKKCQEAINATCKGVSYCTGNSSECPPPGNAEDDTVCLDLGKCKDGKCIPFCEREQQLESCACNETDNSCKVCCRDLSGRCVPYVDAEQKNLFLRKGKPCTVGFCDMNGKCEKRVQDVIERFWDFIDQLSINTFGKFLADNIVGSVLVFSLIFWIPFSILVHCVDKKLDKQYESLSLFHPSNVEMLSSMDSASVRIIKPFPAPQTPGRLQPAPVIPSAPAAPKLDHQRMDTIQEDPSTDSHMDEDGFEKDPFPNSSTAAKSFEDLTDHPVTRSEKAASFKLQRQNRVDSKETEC
Parameter: pIC50. Scope: all listed entries.
Expect pIC50 as a plain number equal to -log10 of the molar concentration.

>>> numeric_readout("COc1ccc(S(=O)(=O)N(Cc2ccccc2)c2c(Cl)cccc2C(=O)NO)cc1 [Example 24]")
6.00

We next turn to a different compound, shown below.
[Q] Provide measured pIC50 value, entry: COc1ccc(S(=O)(=O)N(Cc2cccnc2)c2c(C(=O)NO)cc(C)cc2-c2cccs2)cc1 [Example 145]
[A] 6.80

----------
target: MMP-13 (Homo sapiens, UniProt P45452); test: MMP-13 inhibition (thiopeptide/DTNB or fluorescent peptide substrate); format: biochemical
MEASURE: IC50 (nM)
// units = nM; emit number, no label

[Q] Provide only the value of recorded IC50 for `COc1ccc(S(=O)(=O)N(Cc2cccnc2)c2c(OCc3cccnc3)cccc2C(=O)NO)cc1`
[A] 33

----------
target: TACE (Homo sapiens, UniProt P78536); construct: purchased Immunex; test: TACE inhibition (fluorescent peptidyl substrate); assay type: biochemical
MEASURE: IC50 (nM)
Numeric answer only, unit nM assumed.

[Q] Supply recorded IC50 for `COc1ccc(S(=O)(=O)N(Cc2cccnc2)c2c(OCc3cccnc3)cccc2C(=O)NO)cc1` here.
[A] 289

----------
molecular target: MMP-13 (Homo sapiens); test: MMP-13 inhibition (thiopeptide/DTNB or fluorescent peptide substrate); format: biochemical; details: read-out: MMP-13 IC50
MEASURE: IC50
Put your answer as a value accompanied by its unit after it.

[Q] Look up and state reported IC50 for `COc1ccc(S(=O)(=O)N(Cc2cccnc2)c2c(C(=O)NO)cc(C)cc2-c2cccs2)cc1`
[A] 3 nM
